This collection of values is drawn from ChEMBL document CHEMBL1201862.

Provide the recorded GI50 for the entries that follow.
- System: SNB-19
- protocol description: NCI tumour cell line growth inhibition, 48 h
Calls of active or inactive are those of the source. Cut-off read from the data, not from the text of the source: active = GI50 up to about 1.1 µM and inactive = higher.

Some solved cases for reference:
molecule="CCOC(=O)C1S/C(=N/c2ccc(Cl)cc2C)N=C1C (stereo not given)" readout_label=GI50 test_result="26.6 µM (inactive)"
molecule=CN(C)CCNC(=O)c1cccc2[nH]c(-c3ccc(Cl)cc3)nc12 readout_label=GI50 test_result="7.87 µM (inactive)"
molecule=O=C1NCN(c2ccccc2)C12CCN(CCCN1CCN(CCOC(c3ccc(F)cc3)c3ccc(F)cc3)CC1)CC2 readout_label=GI50 test_result="2.72 µM (inactive)"

Respectfully, I request GI50 for each entry included below.
1. Cc1cc(O)c2c(c1)C(=O)C(c1c(C)cc3c(c1O)C(=O)C1OC1C3=O)=CC2=O (stereo not given)
2. C=CCNC(=S)N1CC(C)C(=O)Nc2cc(Cl)ccc21 (stereo not given)
3. Cc1nc(-c2cccnc2)sc1C(=O)CC(=O)C(=O)Nc1cccc(NC(=O)C(=O)CC(=O)c2sc(-c3cccnc3)nc2C)n1
4. COc1c(C)cc2c(C(C)C)c(O)c(O)c(C=O)c2c1O
5. CC1=C(C(N)=O)C(c2ccncc2)C(C#N)=C2SCC(=O)N12 (stereo not given)
6. CCN1CC2=C(NC(=S)NC2c2ccc(Cl)cc2)/C(=C/c2ccc(Cl)cc2)C1 (stereo not given)

21.5 µM (inactive)
> 100 µM (inactive)
> 100 µM (inactive)
35.7 µM (inactive)
> 100 µM (inactive)
68.9 µM (inactive)

Given CCOC(=O)CNC1C(NC(C)=O)C(OC)OC2COC(c3ccccc3)OC21 (stereo not given) , respond with its GI50.
> 100 µM (inactive)
